The entries below are paired with their reported LD50.
Assay: Acute toxicity in the mouse
Assay type: in vivo
Settings: mouse, in vivo, ip; male mice (Swiss stock); Litchfield and Wilcoxon
Numeric only. Scale: mg/kg

Sample answers from the record:
Compound	LD50, mg/kg
CCCC(CCC)C(=O)O[C@@H]1C[C@@H]2[C@H]3O[C@H]3[C@H](C1)[N+]2(C)C	93.5
CCCC[N@+]1(C)[C@@H]2C[C@@H](OC(=O)C(CCC)CCC)C[C@H]1[C@@H]1O[C@@H]12	105
C[N+]1(C)[C@@H]2CC[C@H]1C[C@@H](OC(=O)C(CO)c1ccccc1)C2 (some centres unmarked) [Atropine MeBr, atropine methyl bromide]	75
CCCC[N+]1(C)[C@@H]2C[C@@H](OC(=O)[C@H](CO)c3ccccc3)C[C@H]1[C@@H]1O[C@@H]12 (some centres unmarked) [Buscopan, scopolamine butyl bromide]	65
CCCC(CCC)C(=O)O[C@@H]1C[C@@H]2[C@H]3O[C@H]3[C@H](C1)[N@@+]2(C)CC	72
CCCC(CCC)C(=O)O[C@@H]1C[C@@H]2[C@H]3O[C@H]3[C@H](C1)[N@+]2(C)CC	74
CCCC(CCC)C(=O)O[C@@H]1C[C@@H]2[C@H]3O[C@H]3[C@H](C1)[N@+]2(C)C(C)C	78

Exam item: Let me know recorded LD50 for CCCC(CCC)C(=O)OC1CC2CCC(C1)[N+]2(C)C(C)C (centres unmarked) [Syntropium Br, syntropium bromide, reference compound] , thanks.
Marked response: 65

* * *

Measured ED150 after 15 min, listed per entry.
Test system: mouse pupil (basal pupillary diameter)
Assay: Mydriatic activity in the mouse
Format: in vivo
Details: mouse, i.p.; 150% increase of basal pupillary diameter; 15 min
Please give a number only; it is taken to be in mg/kg/i.p..

Below, 2 molecules whose answers are already recorded.
Molecule	Measurement Units	ED150 after 15 min
C[N+]1(C)[C@@H]2CC[C@H]1C[C@@H](OC(=O)C(CO)c1ccccc1)C2 (stereo partly shown) [Atropine MeBr, atropine methyl bromide]	mg/kg/i.p.	0.030
CCCC(CCC)C(=O)O[C@@H]1C[C@@H]2[C@H]3O[C@H]3[C@H](C1)[N+]2(C)C	mg/kg/i.p.	0.21

Exam item: Fill in ED150 after 15 min for record CCCC(CCC)C(=O)O[C@@H]1C[C@@H]2[C@H]3O[C@H]3[C@H](C1)[N@+]2(C)CC
Marked response: 2.17

Exam item: Return the recorded ED150 after 15 min value; entry: CCCC[N+]1(C)[C@@H]2C[C@@H](OC(=O)[C@H](CO)c3ccccc3)C[C@H]1[C@@H]1O[C@@H]12 (stereo partly shown) [Buscopan, scopolamine butyl bromide]
Marked response: 3.24

* * *

Listed here are compounds together with their documented ED50.
Test: Intestinal transit in the mouse (inhibition of progression of opaque meal)
Settings: in vivo, ip
Give the number; mg/kg is assumed, so skip it.

These recorded examples may help you get a feel for the data.
Compound	ED50 (mg/kg)
CCCC[N+]1(C)[C@@H]2C[C@@H](OC(=O)[C@H](CO)c3ccccc3)C[C@H]1[C@@H]1O[C@@H]12 (stereo partly shown) [Buscopan, scopolamine butyl bromide]	51.7
C[N+]1(C)[C@@H]2CC[C@H]1C[C@@H](OC(=O)C(CO)c1ccccc1)C2 (stereo partly shown) [Atropine MeBr, atropine methyl bromide]	52.1
CCCC(CCC)C(=O)O[C@@H]1C[C@@H]2[C@H]3O[C@H]3[C@H](C1)[N@+]2(C)CC [No. 5]	73.2

Exam item: Tell me its ED50 given CCCC(CCC)C(=O)O[C@@H]1C[C@@H]2[C@H]3O[C@H]3[C@H](C1)[N+]2(C)C [No. 2] as the entry.
Marked response: 79

Exam item: # return recorded ED50 for entry CCCC(CCC)C(=O)O[C@@H]1C[C@@H]2[C@H]3O[C@H]3[C@H](C1)[N@@+]2(C)CC [No. 12]
Marked response: 42.2
